Values compiled from patent US20250042994A1.

# systemUnderTest: T1, Human CD19-his protein (human, UniProt P15391 20-291)
# T1 construct: bought protein; also called recombinant human CD19-His; CD19 full-length protein; not shown: His tag
# T1 sequence (looked up): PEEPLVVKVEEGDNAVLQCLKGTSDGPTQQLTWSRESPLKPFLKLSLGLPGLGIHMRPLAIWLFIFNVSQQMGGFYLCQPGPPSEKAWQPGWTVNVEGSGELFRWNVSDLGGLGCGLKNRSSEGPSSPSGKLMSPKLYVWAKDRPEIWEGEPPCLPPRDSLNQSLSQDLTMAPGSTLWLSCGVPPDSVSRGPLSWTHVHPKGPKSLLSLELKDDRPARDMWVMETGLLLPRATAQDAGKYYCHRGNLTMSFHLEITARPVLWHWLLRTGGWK
# testSummary: SPR Biacore, Ab captured on Protein A, CD19-His analyte
Classify by measured koff: class 1 if it is equal to or exceeds 0.0002 s⁻¹, class 0 if it is smaller.

query: Check the entry F5.8.6 (antibody, human IgG1, V domains shown, human-murine chimeric antibody, human IgG1 constant) VH: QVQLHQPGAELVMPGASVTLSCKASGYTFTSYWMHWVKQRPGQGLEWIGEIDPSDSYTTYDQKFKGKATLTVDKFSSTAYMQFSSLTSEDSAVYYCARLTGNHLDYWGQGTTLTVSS VL: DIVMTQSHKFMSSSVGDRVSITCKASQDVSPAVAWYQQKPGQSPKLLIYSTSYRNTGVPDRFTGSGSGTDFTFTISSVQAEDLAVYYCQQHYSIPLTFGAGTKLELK : does koff equal or exceed 0.0002 s⁻¹?
result: class 1

query: And for F3.121.4 (antibody, human IgG1, V domains shown, human-murine chimeric antibody, human IgG1 constant; also called chimeric antibody F3.121.4) VH: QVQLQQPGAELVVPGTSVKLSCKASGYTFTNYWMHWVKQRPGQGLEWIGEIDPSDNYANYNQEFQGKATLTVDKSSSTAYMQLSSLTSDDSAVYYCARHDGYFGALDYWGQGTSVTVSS VL: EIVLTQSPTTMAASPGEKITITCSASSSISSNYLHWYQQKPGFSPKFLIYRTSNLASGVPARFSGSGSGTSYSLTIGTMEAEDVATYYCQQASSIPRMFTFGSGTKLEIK ?
result: class 1

query: And for F3.124.7 (antibody, human IgG1, V domains shown, human-murine chimeric antibody, human IgG1 constant) VH: EVQLQQSGPVLVKPGASVKMSCKASGYTFTDYYMNWVKQRHGKSLEWIGISNPYNGGTSYNQKFKDKATLTVDKSSSTAYMELNSLTSEDSAVYYCAREGGTAQPTSGMDYWGQGTSVTVSS VL: NIMMTQSPSSLAVSAGEKVTMSCKSSQSVLYSSNQKNYLAWYQQKPGQSPKLLIYWASTRESGVPDRFTGSGSGTDFTLTISSVQPEDPAVYYCHQYRSSYTFGGGTKLEIK ?
result: class 0

query: And for F4.272.13 (antibody, human IgG1, V domains shown, human-murine chimeric antibody, human IgG1 constant) VH: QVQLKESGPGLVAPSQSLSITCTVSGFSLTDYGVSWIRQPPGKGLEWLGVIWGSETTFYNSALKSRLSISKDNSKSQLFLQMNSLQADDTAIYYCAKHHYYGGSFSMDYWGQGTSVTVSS VL: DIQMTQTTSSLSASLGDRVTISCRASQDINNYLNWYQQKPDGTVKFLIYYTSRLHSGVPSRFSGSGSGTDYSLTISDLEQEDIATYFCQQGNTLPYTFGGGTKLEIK ?
result: class 0

query: And for F3.23.10 (antibody, human IgG1, V domains shown, human-murine chimeric antibody, human IgG1 constant) VH: EFQLQQSGPELVKPGASVKISCKASDYSFTDYNMNWVKQSNGASLEWIGIINPNFGSTSYNQKFKGKATLTVDQSSSTAFMQLNSLTSEDSAVYYCARSEYYGSSGFAYWGQGTLVTVSA VL: DVVVTQTPLSLPVSFGDQVSISCRSSQSLVNSYGNTYLSWYLHKPGQSPQLLIYGISNRFSGVPDRFSGSGSGTDFTLKITTIKPEDLGMYYCLQGTHQPWTFGGGTKLEIK ?
result: class 0
